Tested on: CP265
assay remarks: qHTS profiling for inhibitors of Plasmodium falciparum proliferation (AID 504749); note: nearly all actives have a fitted effect of over 60% in size
recorded conditions: P. falciparum in erythrocytes, SYBR Green DNA, 72 h; series mostly up to 28.7 µM
Results filed as inconclusive are left out. Calls of active or inactive are those of the source. Calls come from the whole dose curve; as a rule, active = well fitted inhibition curve with a large enough effect; inconclusive = small, poorly fitted or top-dose-only effect; inactive = flat fitted curve, though single readings scatter.
Answer with one of the outcomes active, inactive

Any idea what this test logged for Cc1ccc(S(=O)(=O)O)cc1C ?
inactive

Any idea what this test logged for C[C@H]1O[C@@H](O[C@H]2[C@@H](O)C[C@H](O[C@H]3[C@@H](O)C[C@H](O[C@H]4CC[C@@]5(C)[C@H](CC[C@@H]6[C@@H]5C[C@@H](O)[C@]5(C)[C@@H](C7=CC(=O)OC7)CC[C@]65O)C4)O[C@@H]3C)O[C@@H]2C)C[C@H](O)[C@@H]1O ?
inactive

Any idea what this test logged for COc1ccc2c(c1)OC(C)(C)C(c1ccccc1)C2c1ccc(OCCN2CCCC2)cc1 (stereo unspecified) ?
active

Any idea what this test logged for CCC(C(=O)NC(N)=O)c1ccccc1 (stereo unspecified) ?
inactive

Any idea what this test logged for CCCCCCCCCCCCOCCCN ?
inactive

Any idea what this test logged for CN1CCC(OC(=O)C(Oc2ccc(Cl)cc2)Oc2ccc(Cl)cc2)CC1 ?
inactive

Any idea what this test logged for CC/C=C\C/C=C\C/C=C\C/C=C\C/C=C\C/C=C\CCC(=O)O ?
inactive

Any idea what this test logged for COc1cc(NCCCC(C)N)c2ncccc2c1 (stereo unspecified) ?
active

Any idea what this test logged for FC(F)(F)COCC(F)(F)F ?
inactive

Any idea what this test logged for CC(=O)Nc1ccc(OC(=O)c2ccccc2O)cc1 ?
inactive

Any idea what this test logged for Oc1ccc(Cl)c2c1CCC2 ?
inactive

* * *

System: CP194
assay remarks: qHTS profiling for inhibitors of Plasmodium falciparum proliferation (AID 504749); note: nearly all actives have a fitted effect of over 60% in size
recorded conditions: P. falciparum in erythrocytes, SYBR Green DNA, 72 h; series mostly up to 28.7 µM
Inconclusive results are not listed. The source made the active and inactive calls. Calls follow the shape of the dose curve; as a rule, active = well fitted inhibition curve with a large enough effect; inconclusive = small, poorly fitted or top-dose-only effect; inactive = flat fitted curve, though single readings scatter.
Answer with one of the outcomes active, inactive

Any idea what this test logged for O=C1CCC(c2ccccc2)(C2CCN(Cc3ccccc3)CC2)C(=O)N1 (stereo not given) ?
inactive

Any idea what this test logged for CCCOC(=O)c1ccccc1O ?
inactive

Any idea what this test logged for OCC(O)CO ?
inactive

Any idea what this test logged for Oc1ccc(Cl)c2c1CCC2 ?
inactive

Any idea what this test logged for Cc1cccc(Nc2ncccc2C(=O)O)c1C ?
inactive

Any idea what this test logged for NCCN ?
inactive

Any idea what this test logged for c1ccc2c(c1)Sc1ccccc1N2CCN1CCCC1 ?
active

Any idea what this test logged for O=C1N=C2SCCN2C(=O)C1Cc1ccc(Cl)cc1 (stereo not given) ?
inactive

Any idea what this test logged for CC(=O)Nc1ccc(OC(=O)c2ccccc2O)cc1 ?
inactive

Any idea what this test logged for COC(=O)CC[C@H](N)C(=O)O ?
inactive

Any idea what this test logged for O=[n+]1ccn([O-])c2ccccc21 ?
inactive

Any idea what this test logged for NC(=O)Oc1ccc(Cc2ccccc2)cc1 ?
inactive

Any idea what this test logged for Nc1nccs1 ?
inactive

Any idea what this test logged for c1ccc2ccccc2c1 ?
inactive

Any idea what this test logged for FC(F)(F)COCC(F)(F)F ?
inactive

Any idea what this test logged for CN=C1C=CC(=C(c2ccc(N(C)C)cc2)c2ccc(N(C)C)cc2)C=C1 ?
active

Any idea what this test logged for OB(O)O ?
inactive

Any idea what this test logged for O=C(NNCNNC(=O)c1ccncc1)c1ccncc1 ?
inactive

Any idea what this test logged for NCC(O)CC(=O)O (stereo not given) ?
inactive

Any idea what this test logged for Cc1c(C)c2c(c(C)c1OC(=O)CCC(=O)O)CC[C@@](C)(CCC[C@H](C)CCC[C@H](C)CCCC(C)C)O2 ?
inactive

Any idea what this test logged for FC(F)(F)C(F)(F)C(F)(F)C(F)(F)C(F)(F)F ?
inactive

Any idea what this test logged for Cc1cccc(C)c1NC(=O)NC1=CCCN1C ?
inactive

Any idea what this test logged for COc1ccc(/C=C/C(=O)O)cc1 ?
inactive

Any idea what this test logged for CC(=O)Oc1cc(C(F)(F)F)ccc1C(=O)O ?
inactive

Any idea what this test logged for O=C(O)CCCC/C=C(\c1ccccc1)c1cccnc1 ?
inactive

Any idea what this test logged for Cc1ccccn1 ?
inactive

Any idea what this test logged for COC(=O)c1ccccc1O ?
inactive

Any idea what this test logged for [O]=[Bi][O]C(=O)[O][Bi]=[O] ?
inactive

Any idea what this test logged for CC(C)(CO)[C@@H](O)C(=O)NCCC(=O)NCCSSCCNC(=O)CCNC(=O)[C@H](O)C(C)(C)CO ?
inactive

Any idea what this test logged for Nc1nc(=O)n([C@@H]2CS[C@H](CO)O2)cc1F ?
inactive

Any idea what this test logged for O=C(O)COc1ccccc1/C=N/NC(=O)c1ccncc1 ?
inactive

Any idea what this test logged for CCCCC(CC)COS(=O)(=O)O (stereo not given) ?
inactive

Any idea what this test logged for CC(=O)[O][Al][O]C(C)=O ?
inactive

Any idea what this test logged for CC(CCc1ccc(O)cc1)NCC(O)c1ccc(O)cc1 (stereo not given) ?
inactive

Any idea what this test logged for CC(C)O ?
inactive

Any idea what this test logged for CC(C)OC(=O)Nc1ccc2nc(-c3cscn3)[nH]c2c1 ?
inactive

Any idea what this test logged for CCN(CC)C(=S)S ?
inactive

Any idea what this test logged for NC(=O)[C@@H]1CCCN1C(=O)[C@H](Cc1cnc[nH]1)NC(=O)[C@@H]1CCC(=O)N1 ?
inactive

Any idea what this test logged for Cc1ccc(S(=O)(=O)O)cc1C ?
inactive

Any idea what this test logged for ClC(Cl)Cl ?
inactive

Any idea what this test logged for CO ?
inactive

Any idea what this test logged for O=C(O)[C@H]1C(=CCO)O[C@H]2CC(=O)N12 ?
inactive

Any idea what this test logged for COc1cc(C)c(/C=C/C(C)=C/C=C/C(C)=C/C(=O)O)c(C)c1C ?
inactive

Any idea what this test logged for CN(C)CCOc1ccc(/C(=C(/CCCl)c2ccccc2)c2ccccc2)cc1 ?
inactive

Any idea what this test logged for COc1ccc2c(=O)c(C)c(-c3ccccc3)oc2c1CN(C)C ?
inactive

Any idea what this test logged for C=CC(=O)O ?
inactive

Any idea what this test logged for O=C(O)c1cc(N=Nc2ccc(O)c(C(=O)O)c2)ccc1O ?
inactive

Any idea what this test logged for O=C(O)c1ccc(OCCn2ccnc2)cc1 ?
inactive

Any idea what this test logged for Oc1cc(O)cc(O)c1 ?
inactive

Any idea what this test logged for CC(=O)Nc1c(I)c(C(=O)O)c(I)c(N(C)C(C)=O)c1I ?
inactive

Any idea what this test logged for CN(C)CCCSc1ccccc1NC(=O)/C=C/c1ccccc1 ?
inactive

Any idea what this test logged for C=CC[C@@H]1/C=C(\C)C[C@H](C)C[C@H](OC)[C@H]2O[C@@](O)(C(=O)C(=O)N3CCCC[C@H]3C(=O)O[C@H](/C(C)=C/[C@@H]3CC[C@@H](O)[C@H](OC)C3)[C@H](C)[C@@H](O)CC1=O)[C@H](C)C[C@@H]2OC ?
active

Any idea what this test logged for FC(F)(F)C(F)(F)C(F)(F)C(F)(F)C(F)(F)C(F)(F)F ?
inactive

Any idea what this test logged for [O]=[Bi][O][Bi]=[O] ?
inactive

Any idea what this test logged for CC1CC(O)CC(C)(C)C1 (stereo not given) ?
inactive

* * *

System: CP237
assay remarks: qHTS profiling for inhibitors of Plasmodium falciparum proliferation (AID 504749); note: nearly all actives have a fitted effect of over 60% in size
recorded conditions: P. falciparum in erythrocytes, SYBR Green DNA, 72 h; series mostly up to 28.7 µM
Results filed as inconclusive are left out. The source made the active and inactive calls. Calls come from the whole dose curve; as a rule, active = well fitted inhibition curve with a large enough effect; inconclusive = small, poorly fitted or top-dose-only effect; inactive = flat fitted curve, though single readings scatter.
Answer with one of the outcomes yes (1) = active, no (0) = inactive

Any idea what this test logged for CCCCC(CC)CCC(CC(C)C)OS(=O)(=O)O (configuration not stated) ?
no (0)

Any idea what this test logged for CCN(CC)CCC(=O)N1c2ccccc2Sc2ccc(C(F)(F)F)cc21 ?
no (0)

Any idea what this test logged for CO/N=C(\C(=O)N[C@@H]1C(=O)N2C(C(=O)[O-])=C(C[n+]3cccc4c3CCC4)CS[C@H]12)c1csc(N)n1 ?
no (0)

Any idea what this test logged for CC(C)(C)CC(C)(C)c1ccc(OCCO)cc1 ?
no (0)

Any idea what this test logged for CC(=O)[C@H]1CC[C@H]2[C@@H]3C=CC4=CC(=O)CC[C@@]4(C)[C@H]3CC[C@]12C ?
no (0)

Any idea what this test logged for CN1CCc2c(c3ccccc3n2Cc2ccccc2)C1 ?
yes (1)

Any idea what this test logged for CCC(O)c1ccccc1 (configuration not stated) ?
no (0)

* * *

tested system: Luciferin 4-monooxygenase (Photinus pyralis)
assay remarks: Biochemical firefly luciferase enzyme assay for NPC (AID 624030);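 note: purified P. pyralis luciferase at 10 nM with luciferin and ATP substrate; 0% = DMSO and -100% = full luciferase inhibition by PTC124 control; nearly all actives have a fitted effect of over 70% in size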
recorded conditions: purified P. pyralis luciferase, luminescence, 5 min; series mostly up to 58.6 µM
Inconclusive results are not listed. Activity calls are given as the source filed them. The call rests on the fitted dose curve; in most records, active means well fitted inhibition curve with a large enough effect; inconclusive means small, poorly fitted or top-dose-only effect; inactive means flat fitted curve, though single readings scatter.
observable: outcome

>>> measured_result("OC[C@H]1O[C@@H]2O[C@H]3[C@H](O)[C@@H](O)[C@@H](O[C@H]4[C@H](O)[C@@H](O)[C@@H](O[C@H]5[C@H](O)[C@@H](O)[C@@H](O[C@H]6[C@H](O)[C@@H](O)[C@@H](O[C@H]7[C@H](O)[C@@H](O)[C@@H](O[C@H]1[C@H](O)[C@H]2O)O[C@@H]7CO)O[C@@H]6CO)O[C@@H]5CO)O[C@@H]4CO)O[C@@H]3CO")
"inactive"
>>> measured_result("C[Si](C)(C)O[Si](C)(C)C")
"inactive"
>>> measured_result("C[C@H](N)C(=O)N[C@@H](C)P(=O)(O)O")
"inactive"
